Can you tell me pest or weed control at 8.3 ppm for the items I'm about to list?
- Tested on: Magnaporthe grisea=Pyricularia oryzae
- TEST_DESCRIPTION: whole plant or invertebrate
- Type: in vivo
- ASSAY_CONDITIONS: Pyricularia oryzae, foliar, read-out: PYRIOR disease control, 8.3 ppm (footnote c), rice foliage

[
  {
    "COMPOUND": "C[S+]([O-])c1cc(Cl)nc(Oc2ccc(CCNc3ncnc4scc(Cl)c34)cc2)c1 (stereo not shown) [Compound 92]",
    "ENDPOINT": "pest or weed control at 8.3 ppm",
    "VALUE_MEASURED": "80 to 100%"
  },
  {
    "COMPOUND": "COc1ccc([N+](=O)[O-])c(Oc2ccc(CCNc3ncnc4scc(Cl)c34)cc2)n1 [Compound 116]",
    "ENDPOINT": "pest or weed control at 8.3 ppm",
    "VALUE_MEASURED": "0 to 49%"
  }
]

State recorded pest or weed control at 8.3 ppm for all listed compounds.
1. O=Cc1sc(Oc2ccc(CCNc3ncnc4scc(Cl)c34)cc2)nc1Cl [Compound 121]
2. NC(=O)c1cccc(Oc2ccc(CCNc3ncnc4scc(Cl)c34)cc2)n1 [Compound 82]
3. Fc1ccc(F)c(Oc2ccc(CCNc3ncnc4scc(Cl)c34)cc2)n1 [Compound 132]
4. Clc1csc2ncnc(NCCc3ccc(Oc4snnc4-c4ccccc4)cc3)c12 [Compound 115]
5. CC(=O)c1cccc(Oc2ccc(CCNc3ncnc4scc(Cl)c34)cc2)n1 [Compound 100]
6. Clc1csc2ncnc(NCCc3ccc(Oc4nnc(-c5ccncc5)s4)cc3)c12 [Compound 118]
7. Fc1nc(F)c(F)c(Oc2ccc(CCNc3ncnc4scc(Cl)c34)cc2)c1F [Compound 110]

Out:
1. 80 to 100%
2. 80 to 100%
3. 80 to 100%
4. 50 to 79%
5. 80 to 100%
6. 80 to 100%
7. 80 to 100%

In: Report pest or weed control at 8.3 ppm for COc1nsc(Oc2ccc(CCNc3ncnc4scc(Cl)c34)cc2)n1 [Compound 122] tested on Magnaporthe grisea=Pyricularia oryzae.
Out: 80 to 100%

The values you see were collected from patent US7531482B2.
